Catalogue of half-life at 1 μM values
- EXPERIMENT NOTES: Plasma stability (mouse)
- Format: in vitro ADME
- MEASUREMENT CONTEXT: pooled plasma, read-out: half-life in mouse plasma

GIVEN SMILES	half-life at 1 μM
C=CC(=O)NCCCC[C@H](NC(=O)Cc1ccccc1)C(=O)N1CCN(c2cccc(C)n2)CC1	> 24 h
C=CC(=O)NCCCC[C@H](NC(=O)OCc1ccccc1)C(=O)N1CCN(c2ccccc2Cl)CC1	> 24 h
